Assay: Pharmacokinetic assay in mice
Assay type: in vivo
Details: male, mouse, plasma; ICR mice, 15 mg/kg, IV; read-out: Area under curve AUC0-∞
Each item that follows carries a reported AUC(0-inf).

molecule	units.text	AUC(0-inf)
C[C@H](O)c1nccn1Cc1cc(-c2ccc(C#Cc3ccc(CN4CC(CC(=O)O)C4)cc3)cc2)on1 [Example 32]	ng·h/mL	20300
C[C@H](O)c1nccn1Cc1cc(-c2ccc(C#Cc3ccc(CN4CCC(C(=O)O)CC4)cc3)cc2)on1 [Example 17]	ng·h/mL	22500

---

Each item that follows carries a reported half-life.
Experiment: Pharmacokinetic assay in mice
Type: in vivo
Conditions: male, mouse, plasma; ICR mice, 15 mg/kg, IV; read-out: Half life T½ (converted)
observation.type: half-life (h)

chemical.structure	observation.type	readout.number
C[C@H](O)c1nccn1Cc1cc(-c2ccc(C#Cc3ccc(CN4CC(CC(=O)O)C4)cc3)cc2)on1	half-life	1.21
C[C@H](O)c1nccn1Cc1cc(-c2ccc(C#Cc3ccc(CN4CCC(C(=O)O)CC4)cc3)cc2)on1	half-life	1.3

---

Biological target: recombinant Pseudomonas aeruginosa LpxC (Pseudomonas aeruginosa (strain ATCC 15692 / DSM 22644 / CIP 104116 / JCM 14847 / LMG 12228 / 1C / PRS 101 / PAO1))
Assay: Inhibition of LpxC enzymatic activity (fluorescamine assay)
Type: biochemical
pIC50: −log10 of the molar value.
Could you label it Y if measured pIC50 is 8 or higher, and N otherwise?

compound	classification
C[C@H](O)c1nccn1Cc1cc(-c2ccc(C#Cc3ccc(CNCC(=O)O)cc3)cc2)on1 [Example 99]	N
C[C@H](O)c1nccn1Cc1cc(-c2ccc(C#Cc3ccc(C(N)=O)nc3)cc2)on1 [Example 28]	N
C[C@H](O)c1nccn1Cc1cc(-c2ccc(C#Cc3ccc(CNCCO)cc3)cc2)on1 [Example 34]	Y
C[C@H](O)c1nccn1Cc1cc(-c2ccc(C#Cc3ccc(C(=O)NCCO)cc3)cc2)on1 [Example 25]	N

---

Each item that follows carries a reported log10(IC50).
Biological target: recombinant Pseudomonas aeruginosa LpxC (Pseudomonas aeruginosa (strain ATCC 15692 / DSM 22644 / CIP 104116 / JCM 14847 / LMG 12228 / 1C / PRS 101 / PAO1), UniProt P47205)
Assay: Inhibition of LpxC enzymatic activity (fluorescamine assay)
Type: biochemical
Conditions: recombinant P. aeruginosa LpxC 5 nM, substrate 10 μM, 25° C., 120 minutes; read-out: IC50
observation.type: log10(IC50) (log10 of the value in µM)

compound	log10(IC50)
C[C@H](O)c1nccn1Cc1cc(-c2ccc(C#Cc3ccc(CN4CCC(N5CCOCC5)CC4)cc3)cc2)on1	-2.17
C[C@H](O)c1nccn1Cc1cc(-c2ccc(C#Cc3ccc(OCCO)cc3)cc2)on1	-1.85
C[C@H](O)c1nccn1Cc1cc(-c2ccc(C#Cc3ccc(C(=O)NCCC(=O)O)cc3)cc2)on1	-1.48
C[C@H](O)c1nccn1Cc1cc(-c2ccc(C#Cc3ccc(CN4CCNC(=O)C4)cc3)cc2)on1	-1.79
C[C@H](O)c1nccn1Cc1cc(-c2ccc(C#Cc3ccc(CN4CCC(O)CC4)cc3)cc2)on1	-2.01
C[C@H](O)c1nccn1Cc1cc(-c2ccc(C#Cc3ccc(OC4CCC(C(=O)O)CC4)cc3)cc2)on1 (stereo partly shown)	-1.37
C[C@H](O)c1nccn1Cc1cc(-c2ccc(C#Cc3ccc(CN4CC(O)C4)nc3)cc2)on1	-1.65
C[C@H](O)c1nccn1Cc1cc(-c2ccc(C#Cc3ccncc3)cc2)on1	-1.52
C[C@H](O)c1nccn1Cc1cc(-c2ccc(C#Cc3ccccc3)cc2)on1	-1.14
C[C@H](O)c1nccn1Cc1cc(-c2ccc(C#Cc3cccnc3)cc2)on1	-1.57
C[C@H](O)c1nccn1Cc1cc(-c2ccc(C#Cc3ccc(C(=O)NCCN(C)C)cc3)cc2)on1	-1.62
C[C@H](O)c1nccn1Cc1cc(-c2ccc(C#Cc3ccc(CN4CCC(CO)CC4)cc3)cc2)on1	-1.84
C[C@H](O)c1nccn1Cc1cc(-c2ccc(C#Cc3ccc(C(N)=O)cc3)cc2)on1	-2.11
C[C@H](O)c1nccn1Cc1cc(-c2ccc(C#Cc3ccc(CO)cc3)cc2)on1	-1.64
C[C@H](O)c1nccn1Cc1cc(-c2ccc(C#Cc3ccc(C(=O)N4CCN(C)CC4)cc3)cc2)on1	-2.24
C[C@H](O)c1nccn1Cc1cc(-c2ccc(C#Cc3ccc(CC(N)=O)nc3)cc2)on1	-1.67
C[C@H](O)c1nccn1Cc1cc(-c2ccc(C#Cc3ccc(S(N)(=O)=O)cc3)cc2)on1	-1.26
C[C@H](O)c1nccn1Cc1cc(-c2ccc(C#Cc3ccc(C(O)CO)cc3)cc2)on1 (stereo partly shown)	-1.90
C[C@H](O)c1nccn1Cc1cc(-c2ccc(C#Cc3ccc(C(=O)N4CCOCC4)cc3)cc2)on1	-1.89
C[C@H](O)c1nccn1Cc1cc(-c2ccc(C#Cc3ccccc3C(=O)O)cc2)on1	-1.16
C[C@H](O)c1nccn1Cc1cc(-c2ccc(C#Cc3ccc(CO)nc3)cc2)on1	-2.45
C[C@H](O)c1nccn1Cc1cc(-c2ccc(C#Cc3ccc(CN4CCOC(CC(=O)O)C4)cc3)cc2)on1 (stereo partly shown)	-1.79
C[C@H](O)c1nccn1Cc1cc(-c2ccc(C#Cc3ccc(CNCCS(C)(=O)=O)nc3)cc2)on1	-1.66
C[C@H](O)c1nccn1Cc1cc(-c2ccc(C#Cc3ccc(CN4CC(CC(=O)O)C4)cc3)cc2)on1	-1.70
C[C@H](O)c1nccn1Cc1cc(-c2ccc(C#Cc3ccc(CN4CC(CC(N)=O)C4)nc3)cc2)on1	-2.17
C[C@H](O)c1nccn1Cc1cc(-c2ccc(C#Cc3ccc(C(=O)N4CCC(C(=O)O)CC4)cc3)cc2)on1	-1.98
C[C@H](O)c1nccn1Cc1cc(-c2ccc(C#Cc3ccc(CN4CC(CO)C4)nc3)cc2)on1	-1.61
C[C@H](O)c1nccn1Cc1cc(-c2ccc(C#Cc3ccc(CNCC(N)=O)nc3)cc2)on1	-1.13
C[C@H](O)c1nccn1Cc1cc(-c2ccc(C#Cc3ccc(CN4CCNCC4)cc3)cc2)on1	-1.80
C[C@H](O)c1nccn1Cc1cc(-c2ccc(C#Cc3ccc(C(=O)O)cc3)cc2)on1	-1.65
C[C@H](O)c1nccn1Cc1cc(-c2ccc(C#Cc3ccc(N4CCC(O)CC4)cc3)cc2)on1	-1.58
